Below, each entry is listed with its recorded pIC50.
- assayed.system: AChE from electric eel (EeAChE) (Electrophorus electricus)
- Sequence (O42275 24-633): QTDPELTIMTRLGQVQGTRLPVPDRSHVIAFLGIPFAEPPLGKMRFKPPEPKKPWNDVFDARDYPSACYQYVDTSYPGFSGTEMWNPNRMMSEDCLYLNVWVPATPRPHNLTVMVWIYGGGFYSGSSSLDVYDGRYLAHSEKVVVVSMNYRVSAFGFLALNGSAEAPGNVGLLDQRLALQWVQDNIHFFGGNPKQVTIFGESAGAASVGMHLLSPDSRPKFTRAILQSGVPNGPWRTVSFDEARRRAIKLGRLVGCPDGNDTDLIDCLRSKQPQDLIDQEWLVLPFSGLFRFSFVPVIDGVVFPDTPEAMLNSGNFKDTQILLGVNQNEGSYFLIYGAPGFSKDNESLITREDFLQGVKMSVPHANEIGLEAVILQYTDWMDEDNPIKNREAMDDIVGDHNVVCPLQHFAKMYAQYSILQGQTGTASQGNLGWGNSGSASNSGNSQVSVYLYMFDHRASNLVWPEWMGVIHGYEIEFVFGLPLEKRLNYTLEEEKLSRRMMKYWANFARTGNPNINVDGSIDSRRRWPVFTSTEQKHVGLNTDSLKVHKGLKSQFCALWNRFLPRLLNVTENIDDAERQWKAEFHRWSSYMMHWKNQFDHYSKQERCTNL
- experiment.notes: biochemical
- Type: biochemical
- conditions.used: mean ± SD, n = three independent experiments; ATCh 40 µM; read-out: IC50 AChE
pIC50: −log10 of the molar value.

[
  {
    "mol": "[H]/N=C(\\N)NN=Cc1cc(I)cc(I)c1O",
    "pIC50": 4.54
  },
  {
    "mol": "[H]/N=C(\\N)NN=Cc1ccc(Cl)cc1O",
    "pIC50": 4.37
  },
  {
    "mol": "[H]/N=C(\\N)NN=Cc1ccco1",
    "pIC50": 4.39
  },
  {
    "mol": "[H]/N=C(\\N)NN=Cc1cc(Cl)cc(Cl)c1O",
    "pIC50": 4.39
  },
  {
    "mol": "[H]/N=C(\\N)NN=Cc1cccc(Cl)c1O",
    "pIC50": 4.34
  },
  {
    "mol": "[H]/N=C(\\N)NN=Cc1cc(I)c(O)c(I)c1",
    "pIC50": 4.39
  },
  {
    "mol": "NC(=S)N/N=C/c1ccc([N+](=O)[O-])o1",
    "pIC50": 4.48
  },
  {
    "mol": "[H]/N=C(\\N)NN=Cc1cc(Cl)cc(Br)c1O",
    "pIC50": 4.65
  },
  {
    "mol": "NC(N)=NN=C1C(=O)Nc2ccccc21",
    "pIC50": 4.75
  },
  {
    "mol": "[H]/N=C(\\N)NN=Cc1cc(Cl)ccc1O",
    "pIC50": 4.43
  },
  {
    "mol": "[H]/N=C(\\N)NN=Cc1cc(I)ccc1O",
    "pIC50": 4.60
  },
  {
    "mol": "N=C(N)NNCc1cc(I)cc(I)c1O",
    "pIC50": 4.34
  },
  {
    "mol": "NC(=S)N/N=C/c1cc(I)cc(I)c1O",
    "pIC50": 4.28
  },
  {
    "mol": "[H]/N=C(\\N)NN=Cc1c(O)cccc1Cl",
    "pIC50": 4.53
  },
  {
    "mol": "[H]/N=C(\\NN=Cc1cc(I)cc(I)c1O)N[N+](=O)[O-]",
    "pIC50": 4.46
  },
  {
    "mol": "[H]/N=C(\\N)NN=Cc1cc(Cl)cc(I)c1O",
    "pIC50": 4.66
  },
  {
    "mol": "[H]/N=C(\\N)NN=Cc1cc(I)cc(I)c1",
    "pIC50": 4.54
  },
  {
    "mol": "NC(=O)N/N=C/c1ccc([N+](=O)[O-])o1",
    "pIC50": 4.44
  },
  {
    "mol": "NC(=O)N/N=C/c1cc(I)cc(I)c1O",
    "pIC50": 4.51
  },
  {
    "mol": "CC(=O)Oc1c(I)cc(I)cc1/C=N/NC(=N)N",
    "pIC50": 4.69
  },
  {
    "mol": "[H]/N=C(\\N)NN=Cc1ccc([N+](=O)[O-])s1",
    "pIC50": 4.50
  }
]

###

- assayed.system: BuChE from equine serum (EqBuChE) (Equus caballus)
- Sequence (P81908 whole entry): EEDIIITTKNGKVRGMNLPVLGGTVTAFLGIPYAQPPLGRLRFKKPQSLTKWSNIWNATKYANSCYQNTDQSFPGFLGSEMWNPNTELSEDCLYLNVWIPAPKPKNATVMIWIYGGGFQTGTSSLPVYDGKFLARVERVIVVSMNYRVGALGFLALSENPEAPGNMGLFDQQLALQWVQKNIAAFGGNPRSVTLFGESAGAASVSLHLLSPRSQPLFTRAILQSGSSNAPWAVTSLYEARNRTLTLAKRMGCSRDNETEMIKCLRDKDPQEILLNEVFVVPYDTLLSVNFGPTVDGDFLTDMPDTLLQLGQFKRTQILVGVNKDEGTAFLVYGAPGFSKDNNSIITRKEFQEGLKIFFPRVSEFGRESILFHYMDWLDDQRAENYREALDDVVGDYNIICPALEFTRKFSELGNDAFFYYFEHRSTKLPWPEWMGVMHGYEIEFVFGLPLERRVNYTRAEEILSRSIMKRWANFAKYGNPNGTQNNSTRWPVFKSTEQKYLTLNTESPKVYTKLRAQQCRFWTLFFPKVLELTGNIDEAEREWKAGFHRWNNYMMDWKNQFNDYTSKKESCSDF
- experiment.notes: biochemical
- conditions.used: mean ± SD, n = three independent experiments; BTCh 40 µM; read-out: IC50 BuChE
Binary label based on IC50 with cut-off 60 µM: below gives satisfied, not below gives not satisfied.

[
  {
    "compound": "NC(=S)N/N=C/c1cc(I)cc(I)c1O [Compound 2i]",
    "label.value": "not satisfied"
  },
  {
    "compound": "N=C(NN)NN [1,3-diaminoguanidine, reference compound]",
    "label.value": "not satisfied"
  },
  {
    "compound": "NC(=O)N/N=C/c1ccc([N+](=O)[O-])o1 [Compound 3d]",
    "label.value": "not satisfied"
  },
  {
    "compound": "[H]/N=C(\\N)NN=Cc1cc(I)cc(I)c1 [Compound 2c]",
    "label.value": "not satisfied"
  },
  {
    "compound": "[H]/N=C(\\NN=Cc1cc(I)cc(I)c1O)N[N+](=O)[O-] [Compound 2f]",
    "label.value": "not satisfied"
  },
  {
    "compound": "[H]/N=C(\\N)NN=Cc1ccc(Cl)cc1O [Compound 1f]",
    "label.value": "satisfied"
  },
  {
    "compound": "[H]/N=C(\\N)NN=Cc1cccc(Cl)c1 [Compound 1c]",
    "label.value": "satisfied"
  },
  {
    "compound": "[H]/N=C(\\N)NN=Cc1cc(Cl)ccc1O [Compound 1g]",
    "label.value": "satisfied"
  },
  {
    "compound": "[H]/N=C(\\N)NN=Cc1c(O)cccc1Cl [Compound 1h]",
    "label.value": "not satisfied"
  }
]

###

- Tested on: Klebsiella pneumoniae ATCC 10031
- conditions.used: 48 h incubation
Structures can show the parent of a compound that is named as a salt.

[
  {
    "compound": "[H]/N=C(\\N)NN=Cc1ccc([N+](=O)[O-])s1",
    "MIC KP 48 h": "125 µM"
  },
  {
    "compound": "NC(=O)N/N=C/c1cc(I)cc(I)c1O",
    "MIC KP 48 h": ">500 µM"
  },
  {
    "compound": "NC(=S)N/N=C/c1cc(I)cc(I)c1O",
    "MIC KP 48 h": ">500 µM"
  },
  {
    "compound": "[H]/N=C(\\N)NN=Cc1cc(I)ccc1O",
    "MIC KP 48 h": "250 µM"
  },
  {
    "compound": "[H]/N=C(\\N)NN=Cc1cc(I)cc(I)c1",
    "MIC KP 48 h": "62.5 µM"
  },
  {
    "compound": "[H]/N=C(\\N)NN=Cc1cc(Cl)cc(Br)c1O",
    "MIC KP 48 h": "250 µM"
  },
  {
    "compound": "[H]/N=C(\\N)NN=Cc1cc(Cl)cc(I)c1O",
    "MIC KP 48 h": "250 µM"
  },
  {
    "compound": "[H]/N=C(\\N)NN=Cc1cc(I)c(O)c(I)c1",
    "MIC KP 48 h": "250 µM"
  },
  {
    "compound": "CCN1CCN(C(=O)N[C@@H](C(=O)N[C@@H]2C(=O)N3[C@@H]2SC(C)(C)[C@@H]3C(=O)O)c2ccccc2)C(=O)C1=O [PIP, piperacillin sodium salt, reference compound]",
    "MIC KP 48 h": ">59.31 µM"
  },
  {
    "compound": "[H]/N=C(\\N)NN=Cc1ccc([N+](=O)[O-])o1",
    "MIC KP 48 h": "250 µM"
  },
  {
    "compound": "[H]/N=C(\\N)NN=Cc1c(O)cccc1Cl",
    "MIC KP 48 h": ">500 µM"
  },
  {
    "compound": "[H]/N=C(\\N)NN=Cc1ccccc1",
    "MIC KP 48 h": ">500 µM"
  },
  {
    "compound": "NC(=S)N/N=C/c1ccc([N+](=O)[O-])o1",
    "MIC KP 48 h": "62.5 µM"
  },
  {
    "compound": "[H]/N=C(\\N)NN=Cc1ccc(Cl)cc1O",
    "MIC KP 48 h": "500 µM"
  },
  {
    "compound": "Cl.N=C(NN)N/N=C/c1cc(I)cc(I)c1O",
    "MIC KP 48 h": ">125 µM"
  },
  {
    "compound": "[H]/N=C(\\N)NN=Cc1cc(Cl)cc(Cl)c1O",
    "MIC KP 48 h": "500 µM"
  },
  {
    "compound": "NC(=O)N/N=C/c1ccc([N+](=O)[O-])o1",
    "MIC KP 48 h": "125 µM"
  },
  {
    "compound": "CC(=O)Oc1c(I)cc(I)cc1/C=N/NC(=N)N",
    "MIC KP 48 h": "250 µM"
  },
  {
    "compound": "[H]/N=C(\\N)NN=Cc1cc(Cl)ccc1O",
    "MIC KP 48 h": "500 µM"
  }
]

###

- System: Staphylococcus aureus ATCC 29213
- experiment.notes: Antibacterial microdilution broth method (EUCAST)
- Format: cell-based
- conditions.used: ATCC29213, 48 h, read-out: MIC SA 48 h
Where a name gives a salt, the structure may show the parent alone.
Below, each entry is listed with its recorded log10 MIC.
readout.type: log10 MIC (log10 of the value in µM)

[
  {
    "compound": "NC(=O)N/N=C/c1cc(I)cc(I)c1O [Compound 2h]",
    "log10 MIC": 2.40
  },
  {
    "compound": "[H]/N=C(\\N)NN=Cc1cc(Cl)ccc1O [Compound 1g]",
    "log10 MIC": 2.40
  },
  {
    "compound": "[H]/N=C(\\N)NN=Cc1cc(Cl)cc(I)c1O [Compound 1l]",
    "log10 MIC": 2.70
  },
  {
    "compound": "[H]/N=C(\\N)NN=Cc1ccccc1 [Compound 1a]",
    "log10 MIC": 2.70
  },
  {
    "compound": "CCN1CCN(C(=O)N[C@@H](C(=O)N[C@@H]2C(=O)N3[C@@H]2SC(C)(C)[C@@H]3C(=O)O)c2ccccc2)C(=O)C1=O [PIP, piperacillin sodium salt, reference compound]",
    "log10 MIC": 0.27
  },
  {
    "compound": "[H]/N=C(\\N)NN=Cc1ccc([N+](=O)[O-])s1 [Compound 1o]",
    "log10 MIC": 2.40
  },
  {
    "compound": "NC(=S)N/N=C/c1ccc([N+](=O)[O-])o1 [Compound 3e]",
    "log10 MIC": 1.80
  },
  {
    "compound": "CC(=O)Oc1c(I)cc(I)cc1/C=N/NC(=N)N [Compound 2a]",
    "log10 MIC": 2.10
  },
  {
    "compound": "[H]/N=C(\\N)NN=Cc1ccc(Cl)cc1O [Compound 1f]",
    "log10 MIC": 2.70
  },
  {
    "compound": "[H]/N=C(\\N)NN=Cc1cc(Cl)cc(Cl)c1O [Compound 1j]",
    "log10 MIC": 2.40
  },
  {
    "compound": "[H]/N=C(\\N)NN=Cc1cc(I)cc(I)c1 [Compound 2c]",
    "log10 MIC": 1.19
  }
]
